target_or_system: the molecule itself
protocol_summary: self-assembly (homo-oligomerisation) by crystallisation on a substrate
measurement_name: binding result

// known answers, use as guide
Mutant with a self-reducing sequence at the C-terminal part, SEQ ID NO: 31 (C-terminal part and histidine tag modified) (other) MKHHHHHHPGAMARKELSSLEELFRHYGVRYMTLTKMVEMGFTVNTLVNMTEQELDDVIRTLVDIYRVDLLVGEKYGIKSAVRAEKRRLDELERKKGGSWAGAKRLVLRRE : binds
Mutant of the C-terminal part and histidine tag, SEQ ID NO: 26 (other) MHHHHHHGAMARKELSSLEELFRHYGVRYMTLTKMVEMGFTVNTLVNMTEQELDDVIRTLVDIYRVDLLVGEKYGIKSAVRAEKRRLDELERKKGGSC : binds
Mutant with a self-reducing sequence at the C-terminal part, SEQ ID NO: 29 (C-terminal part and histidine tag modified) (other) MKHHHHHHPGAMARKELSSLEELFRHYGVRYMTLTKMVEMGFTVNTLVNMTEQELDDVIRTLVDIYRVDLLVGEKYGIKSAVRAEKRRLDELERKKGGSTGTSVLIATPGV : binds
Mutant of the C-terminal part and histidine tag, SEQ ID NO: 27 (other) MHHHHHHGAMARKELSSLEELFRHYGVRYMTLTKMVEMGFTVNTLVNMTEQELDDVIRTLVDIYRVDLLVGEKYGIKSAVRAEKRRLDELERKKGGSHHHHHH : binds

# input for lookup
Problem: Return value of binding result for input Mutant of the C-terminal part and the histidine tag, SEQ ID NO: 18 (C-terminal part removed, histidine tag modified) (other) MHHHHHHGAMARKELSSLEELFRHYGVRYMTLTKMVEMGFTVNTLVNMTEQELDDVIRTLVDIYRVDLLVGEKYGIKSAVRAEKRR , no commentary.
Solution: binds

These data points were gathered from patent US20220380486A1.
